Measurement Name: melting point

For orientation, consider the following solved cases.
# Compound, Measurement Name, Endpoint Value
rows = [
    ("C[C@@H](CI)CCC(=O)[C@@H](C)[C@H]1C(=O)CC2C3CCC4=CC(=O)CC[C@]4(C)C3CC[C@@]21C (some centres unmarked)", "melting point", "148 to 150 °C"),
    ("CC(=O)OC1CC[C@@]2(C)C(=CC[C@H]3[C@@H]4C[C@@H]5O[C@]6(CC[C@@H](C)CO6)[C@@H](C)[C@@H]5[C@@]4(C)CC[C@@H]32)C1 (stereo partly drawn) [Compound 16, (25R)-3-Acetoxy-spirostan-5-ene]", "melting point", "182 to 184 °C"),
    ("C[C@@H]1CC[C@@]2(OC1)O[C@H]1C[C@H]3[C@@H]4CCC5=CC(O)(Cc6ccccc6)CC[C@]5(C)[C@H]4CC[C@]3(C)[C@H]1[C@@H]2C (stereo partly drawn) [Compound 8, (25R)-3-Benzyl-spirostan-4-en-3-ol]", "melting point", "203 to 205 °C"),
    ("Cc1ccc(S(=O)(=O)NN=C2C=C3CCC4C(CCC5(C)C4CC4OC6(CCC(C)CO6)C(C)C45)C3(C)CC2)cc1 (centres unmarked)", "melting point", "148 to 150 °C"),
    ("C[C@@H]1CC[C@@]2(OC1)O[C@H]1C[C@H]3[C@@H]4CCC5=CC(=O)C=C[C@]5(C)[C@H]4CC[C@]3(C)[C@H]1[C@@H]2C [Compound 12, (25R)-1,4-Spirostadien-3-one]", "melting point", "181 to 183 °C"),
]

Task: Any idea what melting point was measured for C[C@@H]1CC[C@@]2(OC1)O[C@H]1C[C@H]3[C@@H]4CC5OC56CC(O)CC[C@]6(C)[C@H]4CC[C@]3(C)[C@H]1[C@@H]2C (stereo partly drawn) [Compound 17, (25R)-5,6-Epoxy-spirostan-3-ol] ?
Output: 97 to 99 °C

Task: C[C@@H]1CC[C@@]2(OC1)O[C@H]1C[C@H]3[C@@H]4CCC56OC5C(=O)CC[C@]6(C)[C@H]4CC[C@]3(C)[C@H]1[C@@H]2C (stereo partly drawn) [Compound 10, (25R)-4,5-Epoxy-spirostan-3-one] , same question.
Output: 184 to 186 °C

Task: CC1=CC[C@@]2(C)C(=C1)CC[C@H]1[C@@H]3C[C@@H]4O[C@]5(CC[C@@H](C)CO5)[C@@H](C)[C@@H]4[C@@]3(C)CC[C@@H]12 [Compound 7, (25R)-3-Methyl-spirostan-2,4-diene] , same question.
Output: 172 to 174 °C

Task: C[C@@H]1CC[C@@]2(OC1)O[C@H]1C[C@H]3[C@@H]4CC(=O)C5=CC(=O)CC[C@]5(C)[C@H]4CC[C@]3(C)[C@H]1[C@@H]2C [Compound 18, (25R)-4-Spirosten-3,6-dione] , same question.
Output: 200 to 202 °C

Task: CC(=O)OC1C[C@H]2[C@@H]3CCC4=CC(O)CC[C@]4(C)[C@H]3CC[C@]2(C)[C@H]1[C@H](C)C(O)CC[C@@H](C)CO (some centres unmarked) , same question.
Output: 144 to 146 °C

Task: CC1CCC2(OC1)OC1(O)CC3C4CCC56OC5C(=O)CCC6(C)C4CCC3(C)C1C2C (centres unmarked) , same question.
Output: 145 to 147 °C

----------
- Test system: HepG2-A16 human hepatoma cells
- Test Name: Cytotoxicity, MTT colorimetric test
- Assay type: cell-based
- Measurement Conditions: CC50 HepG2/IC50 parasite FCB-2
Decide by SI (selectivity index): equal to or exceeding 10 means satisfied, less means not satisfied.

These solved cases illustrate the format of a correct answer.
# Molecule, Group Label
measured = [
    ("CC(=O)[C@H]1CC[C@H]2[C@@H]3CCC4=CC(=O)CC[C@]4(C)[C@H]3CC[C@]12C [Compound 5, 4-Pregnene-3,20-dione, reference compound]", "not satisfied"),
    ("C[C@H](C(=O)CC[C@@H](C)C=O)[C@H]1C(=O)C[C@H]2[C@@H]3CCC4=CC(=O)CC[C@]4(C)[C@H]3CC[C@]12C", "not satisfied"),
    ("CC(=O)OC1C[C@H]2[C@@H]3CCC4CC(=O)CC[C@]4(C)[C@H]3CC[C@]2(C)[C@H]1[C@H](C)C(=O)CC[C@@H](C)CO (stereo partly shown)", "not satisfied"),
    ("C[C@@H](CO)CCC(=O)[C@@H](C)[C@H]1[C@@H](O)CC2C3CCC4=CC(=O)CC[C@]4(C)C3CC[C@@]21C (stereo partly shown)", "not satisfied"),
    ("CC(=O)OC1C[C@H]2[C@@H]3CCC4=CC(O)CC[C@]4(C)[C@H]3CC[C@]2(C)[C@H]1[C@H](C)C(O)CC[C@@H](C)CO (stereo partly shown)", "not satisfied"),
    ("CC(=O)OC1C[C@H]2[C@@H]3CCC4=CC(=O)CC[C@]4(C)[C@H]3CC[C@]2(C)[C@H]1[C@H](C)C(=O)CC[C@@H](C)C=O (stereo partly shown)", "not satisfied"),
    ("C[C@@H]1CC[C@@]2(OC1)O[C@H]1C[C@H]3[C@@H]4CCC56OC5C(=O)CC[C@]6(C)[C@H]4CC[C@]3(C)[C@H]1[C@@H]2C (stereo partly drawn) [Compound 10, (25R)-4,5-Epoxy-spirostan-3-one]", "not satisfied"),
    ("C[C@@H]1CC[C@@]2(OC1)O[C@H]1C[C@H]3[C@@H]4CC(=O)C5=CC(=O)CC[C@]5(C)[C@H]4CC[C@]3(C)[C@H]1[C@@H]2C [Compound 18, (25R)-4-Spirosten-3,6-dione]", "satisfied"),
    ("CC(=O)OC[C@H](C)CCC(=O)[C@@H](C)[C@H]1C(OC(C)=O)C[C@H]2[C@@H]3CCC4=CC(=O)CC[C@]4(C)[C@H]3CC[C@]12C (stereo partly shown)", "satisfied"),
]

Task: Item C[C@@H](CI)CCC(=O)[C@@H](C)[C@H]1C(=O)CC2C3CCC4=CC(=O)CC[C@]4(C)C3CC[C@@]21C (stereo partly shown) with SI (selectivity index) of 10 or above?
Output: satisfied

----------
- Test system: HepG2-A16 human hepatoma cells
- Test Name: Cytotoxicity, MTT colorimetric test
- Type: cell-based
- Measurement Conditions: CC50 HepG2/IC50 parasite FCB-2
Measurement Name: SI (selectivity index)
Response field accepts a number only; no unit should be typed.

Task: Any idea what SI (selectivity index) was measured for CC1=CC[C@@]2(C)C(=C1)CC[C@H]1[C@@H]3C[C@@H]4O[C@]5(CC[C@@H](C)CO5)[C@@H](C)[C@@H]4[C@@]3(C)CC[C@@H]12 [Compound 7, (25R)-3-Methyl-spirostan-2,4-diene] ?
Output: 3.1

Task: CC1CCC2(OC1)OC1(O)CC3C4CCC56OC5C(=O)CCC6(C)C4CCC3(C)C1C2C (stereo not drawn) , same question.
Output: 15.2

Task: CC(=O)O[C@H]1CC2C3CCC4=CC(=O)CC[C@]4(C)C3CC[C@]2(C)[C@H]1[C@H](C)C(=O)CC[C@@H](C)CO (stereo partly drawn) , same question.
Output: 2.8

----------
- Test Name: Cytotoxicity, MTT colorimetric test
- Assay type: cell-based, human
- Measurement Conditions: human, HepG2-A16 human hepatoma cells; HepG2-A16 cells, MTT, 48 h; read-out: CC50
Measurement Name: CC50 at 48 h

For orientation, consider the following solved cases.
# Compound, Measurement Name, Endpoint Value
data = [
    ("CC(=O)[C@@]1(O)CC[C@H]2[C@@H]3CCC4=CC(=O)CC[C@]4(C)[C@H]3CC[C@@]21C [Compound 6, 17-hydroxy-4-pregnene-3,20-dione, reference compound]", "CC50 at 48 h", "> 1140 µM"),
    ("C[C@@H]1CC[C@@]2(OC1)O[C@H]1C[C@H]3[C@@H]4CCC5CC(=O)CC[C@]5(C)[C@H]4CC[C@]3(C)[C@H]1[C@@H]2C (stereo partly drawn) [Compound 11, (25R)-Spirostan-3-one]", "CC50 at 48 h", "> 916 µM"),
    ("C[C@@H]1[C@H](O)[C@@H](C)/C=C/C=C/C=C/C=C/C=C/C=C/C=C/[C@H](O[C@@H]2O[C@H](C)[C@@H](O)[C@H](N)[C@@H]2O)C[C@@H]2O[C@](O)(C[C@@H](O)C[C@@H](O)[C@H](O)CC[C@@H](O)C[C@@H](O)CC(=O)O[C@H]1C)C[C@H](O)[C@H]2C(=O)O [AF-B, amphotericin B, reference compound]", "CC50 at 48 h", "39.6 µM"),
    ("C[C@@H]1CC[C@@]2(OC1)O[C@H]1C[C@H]3[C@@H]4CCC5=CC(O)CC[C@]5(C)[C@H]4CC[C@]3(C)[C@H]1[C@@H]2C (stereo partly drawn) [Compound 13, (25R)-4-Spirosten-3-ol]", "CC50 at 48 h", "> 2410 µM"),
]

Next:
Task: Any idea what CC50 at 48 h was measured for C[C@@H]1CC[C@@]2(OC1)O[C@H]1C[C@H]3[C@@H]4CC=C5C=CCC[C@]5(C)[C@H]4CC[C@]3(C)[C@H]1[C@@H]2C [Compound 19, (25R)-3,5-Spirostadiene] ?
Output: > 2520 µM
